Value type: melting point

Ask | Respond only with melting point recorded for CC(C)n1cc(-c2ccc(C=O)cc2)c2c(N)ncnc21 [Example 160]
Reply | 198 to 200 °C

Ask | Respond only with melting point recorded for CC(C)(C)n1cc(-c2ccc(N(C=O)c3ccccc3)cc2)c2cncnc21 [Example 166]
Reply | 163 to 164 °C

Ask | Respond only with melting point recorded for Nc1ncnc2c1c(-c1ccc(Oc3ccccc3)cc1)cn2C1CC2CC(O)CC2C1 (stereo not drawn) [Example 174]
Reply | 193 to 194 °C

----------
Value type: melting point

Ask | Respond only with melting point recorded for CC(C)S(=O)(=O)n1cc(-c2ccc(Oc3ccccc3)cc2)c2c(N)ncnc21
Reply | 162 to 162.5 °C

Ask | Respond only with melting point recorded for Nc1ncnc2c1c(-c1ccc(Oc3ccccc3)cc1)cn2C1CCC(O)CC1 (centres unmarked)
Reply | 199 to 200 °C

Ask | Respond only with melting point recorded for CC(C)n1cc(-c2ccc(Oc3ccccc3)c(CO)c2)c2c(N)ncnc21
Reply | 92 to 94 °C

Ask | Respond only with melting point recorded for Nc1ncnc2c1c(-c1ccc(Oc3ccc(OCCO)cc3)cc1)cn2CCO
Reply | 166 to 166.5 °C

Ask | Respond only with melting point recorded for NCc1c(-c2ccc(Oc3ccccc3)cc2)c2c(N)ncnc2n1C1CCCC1
Reply | 196.5 to 197.5 °C
